# assay_text: Noncompetitive antagonism of Angiotensin II receptor in endothelium removed isolated rat aortic ring; (n = 5)
# Assay type: functional
# run_conditions: read-out: pA2 (converted)
I'd appreciate it if you could supply Kb values for the items below.
Answers are plain numbers, in µM.

CCCCc1nc2c([N+](=O)[O-])cccc2n1Cc1ccc(-c2ccccc2C(=O)O)cc1; 0.00316
CCOCc1nc2c([N+](=O)[O-])cccc2n1Cc1ccc(-c2ccccc2C(=O)O)cc1; 0.0501

State recorded Kb for all listed compounds.
1. CCc1nc2c([N+](=O)[O-])cccc2n1Cc1ccc(-c2ccccc2C(=O)O)cc1
2. CCCc1nc2c([N+](=O)[O-])cccc2n1Cc1ccc(-c2ccccc2C(=O)O)cc1

OUTPUT:
1. 0.1
2. 0.0794

---

# assay_text: Competitive antagonism of Angiotensin II receptor in endothelium removed isolated rat aortic ring; (n = 5)
# Assay type: functional
# run_conditions: read-out: pA2 (converted)
Exercise: state measured Kb for each of the molecules provided.
Give bare numbers, in nM.

Previously resolved entries follow.
CCCCc1nc2ccccc2n1Cc1ccc(-c2ccccc2C(=O)O)cc1; 355
CCCCc1nc(Cl)c(CO)n1Cc1ccc(-c2ccccc2-c2nnn[nH]2)cc1 [LOSARTAN]; 39.8
CCCCc1nc2c(N)cccc2n1Cc1ccc(-c2ccccc2C(=O)O)cc1; 15.8

Now, please, on to the next molecule.
INPUT: Name the reported Kb value associated with the molecule CCOc1nc2cccc(C(=O)O)c2n1Cc1ccc(-c2ccccc2-c2nnn[nH]2)cc1 [CANDESARTAN]
OUTPUT: 9.55
